Answer each item with its documented TGI.
Test system: T-47D breast
Test: NCI tumour cell line growth inhibition, 48 h

molecule=CC(=O)/C=C1/C(=O)C(CC(C)C)=C1CC(C)C target="T-47D breast" observed="> 100 µM"
molecule=CCc1n(Cc2ccc3ccccc3c2)cc[n+]1Cc1ccc2ccccc2c1 target="T-47D breast" observed="4.7 µM"
molecule=N#Cc1ccc(N=NN2CCCC2)cc1 target="T-47D breast" observed="> 100 µM"
molecule=CCSc1c2cc(OC)ccc2nc2ccc(OC)cc12 target="T-47D breast" observed="> 69.7 µM"
molecule=O=C1C=CC(=O)N1c1ccc2ccccc2c1 target="T-47D breast" observed="14.7 µM"

Please go through the list and note TGI for each molecule.
1. CCc1n[nH]c(=O)n1N
2. C#CCNC(CCCN=C(N)N)C(=O)O (stereo not drawn)
3. CSc1cc(Cl)c(C(=O)Nc2ccccc2)cc1S(=O)(=O)n1cc[nH]c1=O

> 100 µM
> 100 µM
> 100 µM

Taken from PubChem BioAssay (NCI).
